Biological target: Histone acetyltransferase RTT109 (Candida albicans (strain SC5314 / ATCC MYA-2876)) (UniProt Q5AAJ8)
Sequence (Q5AAJ8 whole entry, looked up): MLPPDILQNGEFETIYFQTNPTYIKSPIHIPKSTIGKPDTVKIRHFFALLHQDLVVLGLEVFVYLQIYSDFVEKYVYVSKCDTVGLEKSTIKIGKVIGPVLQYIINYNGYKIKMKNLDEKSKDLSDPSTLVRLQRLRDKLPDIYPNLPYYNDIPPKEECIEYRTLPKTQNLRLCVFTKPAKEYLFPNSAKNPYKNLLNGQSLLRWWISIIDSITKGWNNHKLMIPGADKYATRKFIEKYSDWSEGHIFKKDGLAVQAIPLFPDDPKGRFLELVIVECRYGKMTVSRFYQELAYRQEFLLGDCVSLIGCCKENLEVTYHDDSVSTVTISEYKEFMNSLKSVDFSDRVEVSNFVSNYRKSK
Test: C. albicans Rtt109 HAT inhibition curves – biochemical, cherry-picked hits, plate reader, dose response (AID 588764)
Conditions: Rtt109/Vps75 HAT activity, at 19.5 µM (top of the series)
Records with an inconclusive call do not appear. Active and inactive are the calls of the source. The rule behind the calls is not given here.
property.name: activity change, negative = inhibition

[[record]]
compound = "CCOC(=O)c1ccc(N2C(=O)c3n[nH]c(C)c3C2c2ccc(OC)cc2)cc1 (stereo not drawn)"
test_value = "inactive"

[[record]]
compound = "Cc1ccc2nc(-c3ccc(NC(=S)NC4CC(C)(C)NC(C)(C)C4)cc3)sc2c1"
test_value = "inactive"

[[record]]
compound = "Cc1ccc(NC(=S)Nc2ccc(F)cc2)cc1C"
test_value = "inactive"

[[record]]
compound = "NC(N)=N/N=C/c1ccc(OCc2ccccc2)c(OCc2ccccc2)c1"
test_value = "inactive"

[[record]]
compound = "CCN(c1ccc(OC)cc1)S(=O)(=O)c1nnc(NC(=O)COc2ccc(C)cc2)s1"
test_value = "inactive"

[[record]]
compound = "CC(C)OC(=O)N(C)c1ccc(C(O)(C(F)(F)F)C(F)(F)F)cc1"
test_value = "inactive"

[[record]]
compound = "CN(CC(=O)Nc1ccc(Cl)cc1)C(=O)c1cccc(S(=O)(=O)NCc2ccccc2)c1"
test_value = "inactive"

[[record]]
compound = "O=C(C1CCOCC1)N1CCCC(N2CCN(c3cccc(C(F)(F)F)c3)CC2)C1 (stereo not drawn)"
test_value = "inactive"

[[record]]
compound = "CCn1c(CCn2c3ccccc3c3ccccc32)n[nH]c1=S"
test_value = "inactive"

[[record]]
compound = "CCn1c(SCC(=O)Nc2cc(OC)c(OC)c(OC)c2)nnc1-c1cccs1"
test_value = "inactive"

[[record]]
compound = "COc1cccc(C(=O)NCc2nnc(SCC(=O)Nc3nccs3)n2-c2cccc(C)c2)c1"
test_value = "inactive"

[[record]]
compound = "COc1ccc(C(=O)C(CCC(CNC(C)(C)C)C(=O)c2ccc(OC)cc2)CNC(C)(C)C)cc1 (stereo not drawn)"
test_value = "inactive"

[[record]]
compound = "COc1ccc(/C=C2/SC(=O)N(NS(=O)(=O)c3ccccc3)C2=S)cc1OC"
test_value = "inactive"

[[record]]
compound = "COc1ccc(Br)cc1CN(C)C(C)C(=O)Nc1cccc(C(C)=O)c1 (stereo not drawn)"
test_value = "inactive"

[[record]]
compound = "COC(=O)c1cccc(Oc2cccc(Cl)n2)c1"
test_value = "inactive"

[[record]]
compound = "CCc1ccccc1NC(=O)C1CCN(C(=O)c2ccc([N+](=O)[O-])cc2)CC1"
test_value = "inactive"

[[record]]
compound = "Cc1cc(C)cc(NC(=O)NC(C)C2CCCO2)c1 (stereo not drawn)"
test_value = "inactive"

[[record]]
compound = "CCC(=O)Nc1cc(C)c(OC)c(C)c1"
test_value = "inactive"

[[record]]
compound = "Cc1cccc(NC(=O)CCN2C(=O)c3ccccc3C2=O)c1"
test_value = "inactive"

[[record]]
compound = "COc1ccc(N2CCN(C(=O)CNC(=O)Cc3ccccc3)CC2)cc1"
test_value = "inactive"

[[record]]
compound = "NNc1n[nH]c(=S)n1N"
test_value = "inactive"

[[record]]
compound = "O=C(O)CSCC(=O)Nc1cc(C(F)(F)F)ccc1Cl"
test_value = "inactive"

[[record]]
compound = "Cc1ccc(CN2CCN(CC(=O)NCc3ccccc3)CC2)cc1"
test_value = "inactive"

[[record]]
compound = "Cc1ccc(C2=NC(C)(C)N=C2SCC(=O)Nc2ccc(Cl)cc2)cc1"
test_value = "inactive"

[[record]]
compound = "CC1Cc2cc(S(=O)(=O)N3CCC(C(=O)N(C)Cc4ccco4)CC3)ccc2N1C(=O)C1CCC1 (stereo not drawn)"
test_value = "inactive"

[[record]]
compound = "O=C(C/C=N/OCc1ccc(Cl)cc1Cl)c1ccccc1"
test_value = "inactive"

[[record]]
compound = "O=C(O)c1cccc2c1NC(C(=O)O)C1CC(Sc3ccccc3[N+](=O)[O-])C(Cl)C21 (stereo not drawn)"
test_value = "inactive"

[[record]]
compound = "CCn1c(SCC(=O)Nc2ccc(Br)cc2)nc2sc3c(c2c1=O)CCN(C)C3"
test_value = "inactive"

[[record]]
compound = "COc1ccc(NC(=O)Nc2nnc(-c3cccs3)s2)cc1"
test_value = "inactive"

[[record]]
compound = "O=S(=O)(c1ccc(Cl)cc1)N1CCN(c2ncccn2)CC1"
test_value = "inactive"

[[record]]
compound = "CSc1c(SCc2ccccc2)cnn(-c2ccccc2)c1=O"
test_value = "inactive"

[[record]]
compound = "Clc1nc(Nc2ccccc2)nc(Nc2ccccc2)n1"
test_value = "inactive"

[[record]]
compound = "CN(C)S(=O)(=O)n1cc(/C=C(\\NC(=O)c2ccccc2)C(=O)N2CCCC2)c2ccccc21"
test_value = "inactive"

[[record]]
compound = "CCOC(=O)C1CCN(c2ccc([N+](=O)[O-])c(C(C)=O)c2)CC1"
test_value = "inactive"

[[record]]
compound = "CN(C)CCCN(C(=O)CCOc1ccccc1)c1nc2c(F)cccc2s1"
test_value = "inactive"

[[record]]
compound = "COCCNS(=O)(=O)c1ccc2c(c1)C(=NO)c1cc(S(=O)(=O)NCCOC)ccc1-2"
test_value = "inactive"

[[record]]
compound = "O=C(CCc1nnc(C2(c3ccc(Cl)cc3)CCC2)o1)NCCCn1cccn1"
test_value = "inactive"

[[record]]
compound = "Cc1ccccc1C(=O)NC(NC(=S)Nc1ccc(S(N)(=O)=O)cc1)C(Cl)(Cl)Cl (stereo not drawn)"
test_value = "inactive"

[[record]]
compound = "CC(=O)Nc1nnc(CCS(=O)(=O)c2ccc(C)c(C)c2)s1"
test_value = "inactive"

[[record]]
compound = "CCN(CC)CCCNc1nc2cc(OC)c(OC)cc2c2nc(-c3cccnc3)nn12"
test_value = "inactive"

[[record]]
compound = "COc1cccc(/C=C2/Sc3ccc(C(=O)NCCCN4CCCC4)cc3NC2=O)c1"
test_value = "inactive"

[[record]]
compound = "CC(C)(C)C1CCc2c(sc(NC(=O)CSc3nnc(-c4ccccc4)o3)c2C#N)C1 (stereo not drawn)"
test_value = "inactive"

[[record]]
compound = "Cc1ccc(-n2c(O)c(C=NCc3ccccn3)c3ccccc3c2=O)cc1C"
test_value = "inactive"

